Every entry's value here was drawn from paper PMC12673918.

- System: CAL‐27 (oral carcinoma)
- run-description: Resazurin cell viability assay, CAL‐27
- Format: cell-based
- settings: Homo sapiens, CAL-27; 50 µM, 72 hours, triplicate; read-out: % Cellular growth inhibition (at 50 µM) CAL-27 (supplement)
- Experimental: […] Cell viability was analyzed using the resazurin assay. […] After incubation for 4 h at 37°C, fluorescence detection was performed (excitation 530/25 nm, emission 590/35 nm) using a microplate fluorimeter (Synergy 2, Biotek). […] Data were plotted, and IC₅₀ values were determined by nonlinear regression using GraphPad Prism software 9.0. ^a Cell viability was assessed using the resazurin assay after 72 hours of compound treatment. […]
Measured inhibition at 50 µM of individual entries
Reply with just the number (in %).

Known inhibition at 50 µM results, listed for orientation:
Consider CC(=O)O[C@H]1C(=O)[C@@]2(C)[C@H]([C@H](OC(=O)c3ccccc3)[C@]3(O)C[C@H](OC(=O)[C@H](O)[C@@H](NC(=O)c4ccccc4)c4ccccc4)C(C)=C1C3(C)C)[C@]1(OC(C)=O)CO[C@@H]1C[C@@H]2O [Paclitaxel, reference compound] . Its measured inhibition at 50 µM is 54

Consider O=C(Cc1ccccn1)c1ccccc1 [Compound 4a, 1‐phenyl‐2‐(pyridin‐2‐yl)ethanone] . Its measured inhibition at 50 µM is 12.2

Consider O=C(Cc1ccccn1)c1ccc(Cl)c(Cl)c1 [Compound 4e] . Its measured inhibition at 50 µM is 22.3

Shift focus to the following entry.
Consider O=C(Cc1ccccn1)c1ccc(Cl)cc1 [Compound 4b] . Its measured inhibition at 50 µM is 11.4

* * *

- Test system: HGC‐27 (gastric carcinoma)
- run-description: Resazurin cell viability assay, HGC‐27
- Format: cell-based
- settings: Homo sapiens, HGC-27; 72 hours, triplicate; read-out: IC50 (nM, Cellular growth inhibition) HGC-27 (supplement)
// thresholds for IC50 classes: low class (below 40 nM), middle class (40 nM to below 400 nM), high class (400 nM or more)

Examples from the recorded data:
Bin this entry: COc1ccc2c(C(=O)c3cc(OC)c(OC)c(OC)c3)c[nH]c2c1 [BPR0L075, reference compound]
middle class

Bin this entry: COc1ccc(N(C)c2nc(C)nc3ccccc23)cc1 [Verubulin, reference compound]
low class

Bin this entry: COc1ccc(-c2cn3cc(OC)ccc3c2C(=O)c2cc(OC)c(OC)c(OC)c2)cc1
high class

Bin this entry: CC(=O)O[C@H]1C(=O)[C@@]2(C)[C@H]([C@H](OC(=O)c3ccccc3)[C@]3(O)C[C@H](OC(=O)[C@H](O)[C@@H](NC(=O)c4ccccc4)c4ccccc4)C(C)=C1C3(C)C)[C@]1(OC(C)=O)CO[C@@H]1C[C@@H]2O [Paclitaxel, reference compound]
low class

Bin this entry: CCCc1cn2cc(OC)ccc2c1C(=O)c1cc(OC)c(OC)c(OC)c1
middle class

Bin this entry: COc1ccc2c(C(=O)c3cc(OC)c(OC)c(OC)c3)c(C(F)(F)F)cn2c1
middle class

Bin this entry: COc1ccc2c(C(=O)c3ccc(Cl)c(Cl)c3)ccn2c1
high class

Bin this entry: COc1ccc2c(C(=O)c3cc(OC)c(OC)c(OC)c3)ccn2c1
middle class

Now for a further compound.
Bin this entry: COc1ccc2c(C(=O)c3cc(OC)c(OC)c(OC)c3)c(C)cn2c1
middle class

* * *

- system-tested: human P2X4 receptor (Homo sapiens)
- Construct: expressed in transfected cells; host or cells: human 1321N1 astrocytoma cells
- run-description: Ca2+‐flux assay for the hP2X4 receptor
- Type: cell-based
- settings: read-out: % Inhibition of P2X4R at 10 µM compounds’ concentration
parameter: inhibition at 10 µM (%)
Reply with just the number (in %).

Known inhibition at 10 µM results, listed for orientation:
Consider COc1ccc2c(C(=O)c3ccc(Cl)cc3)ccn2c1 . Its measured inhibition at 10 µM is 1

Consider Cc1ccc(C(=O)c2ccn3ccccc23)cc1 . Its measured inhibition at 10 µM is 3

Consider COc1ccc2c(C(=O)c3cc(OC)c(OC)c(OC)c3)c(C(F)(F)F)cn2c1 . Its measured inhibition at 10 µM is -9

Shift focus to the following entry.
Consider COc1ccc2c(C(=O)c3cc(OC)c(OC)c(OC)c3)c(-c3ccccn3)cn2c1 . Its measured inhibition at 10 µM is -8

* * *

- system-tested: human P2X4 receptor (Homo sapiens)
- Construct: expressed in transfected cells; host or cells: human 1321N1 astrocytoma cells
- Sequence (Q99571 1-388): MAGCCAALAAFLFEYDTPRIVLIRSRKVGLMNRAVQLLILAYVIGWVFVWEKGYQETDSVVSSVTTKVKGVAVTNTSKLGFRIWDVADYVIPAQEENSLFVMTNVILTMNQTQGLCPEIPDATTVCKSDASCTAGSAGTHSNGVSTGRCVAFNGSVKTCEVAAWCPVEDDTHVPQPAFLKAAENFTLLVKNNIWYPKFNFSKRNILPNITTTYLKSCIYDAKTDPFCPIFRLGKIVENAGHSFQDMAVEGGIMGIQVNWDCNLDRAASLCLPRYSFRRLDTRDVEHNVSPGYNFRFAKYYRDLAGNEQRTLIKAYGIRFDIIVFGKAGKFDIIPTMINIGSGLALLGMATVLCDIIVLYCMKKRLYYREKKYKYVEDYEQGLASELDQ
- run-description: Ca2+‐flux assay for the hP2X4 receptor
- Type: cell-based
- settings: read-out: % Inhibition of P2X4R at 10 µM compounds’ concentration
Measured inhibition at 10 µM of individual entries
Reply with just the number (in %).

Known inhibition at 10 µM results, listed for orientation:
Measured on human P2X4 receptor (Homo sapiens), COc1ccc2c(C(=O)c3cc(OC)c(OC)c(OC)c3)c(-c3ccccc3)cn2c1 [Compound 8f] has a documented inhibition at 10 µM of 4

Measured on human P2X4 receptor (Homo sapiens), O=C(c1ccc(Cl)c(Cl)c1)c1ccn2ccccc12 [Compound 6e] has a documented inhibition at 10 µM of 9

Measured on human P2X4 receptor (Homo sapiens), COc1ccc(CC(=O)c2cc(OC)c(OC)c(OC)c2)nc1 [Compound 5f] has a documented inhibition at 10 µM of 4

Measured on human P2X4 receptor (Homo sapiens), CCCc1cn2cc(OC)ccc2c1C(=O)c1cc(OC)c(OC)c(OC)c1 [Compound 8h] has a documented inhibition at 10 µM of 6

Measured on human P2X4 receptor (Homo sapiens), CCOc1cn2cc(OC)ccc2c1C(=O)c1cc(OC)c(OC)c(OC)c1 [Compound 8c] has a documented inhibition at 10 µM of 10

More entries:
Measured on human P2X4 receptor (Homo sapiens), COc1ccc2c(C(=O)c3ccccc3)ccn2c1 [Compound 7a] has a documented inhibition at 10 µM of -7

Measured on human P2X4 receptor (Homo sapiens), COc1ccc2c(C(=O)c3ccc(Cl)c(Cl)c3)ccn2c1 [Compound 7e] has a documented inhibition at 10 µM of -3

Measured on human P2X4 receptor (Homo sapiens), COc1ccc(-c2cn3cc(OC)ccc3c2C(=O)c2cc(OC)c(OC)c(OC)c2)cc1 [Compound 8k] has a documented inhibition at 10 µM of 7

* * *

- Test system: BT‐20 (breast carcinoma)
- run-description: Resazurin cell viability assay, BT‐20
- Type: cell-based
- settings: Homo sapiens, BT-20; 50 µM, 72 hours, triplicate; read-out: % Cellular growth inhibition (at 50 µM) BT-20 (supplement)
parameter: inhibition at 50 µM (%)
Reply with just the number (in %).

Measured on BT‐20 (breast carcinoma), O=C(Cc1ccccn1)c1ccccc1 [Compound 4a, 1‐phenyl‐2‐(pyridin‐2‐yl)ethanone] has a documented inhibition at 50 µM of 7.5

Measured on BT‐20 (breast carcinoma), CC(=O)O[C@H]1C(=O)[C@@]2(C)[C@H]([C@H](OC(=O)c3ccccc3)[C@]3(O)C[C@H](OC(=O)[C@H](O)[C@@H](NC(=O)c4ccccc4)c4ccccc4)C(C)=C1C3(C)C)[C@]1(OC(C)=O)CO[C@@H]1C[C@@H]2O [Paclitaxel, reference compound] has a documented inhibition at 50 µM of 50

Measured on BT‐20 (breast carcinoma), O=C(Cc1ccccn1)c1ccc(Cl)c(Cl)c1 [Compound 4e] has a documented inhibition at 50 µM of 43.3

More entries:
Measured on BT‐20 (breast carcinoma), O=C(Cc1ccccn1)c1ccc(Cl)cc1 [Compound 4b] has a documented inhibition at 50 µM of 17.3

* * *

- System: BT‐20 (breast carcinoma)
- run-description: Resazurin cell viability assay, BT‐20
- Type: cell-based
- settings: Homo sapiens, BT-20; 72 h, mean ± SD, n = 3; read-out: IC50 (nM) BT‐20
- Procedure: […] Cell viability was analyzed using the resazurin assay. […] After incubation for 4 h at 37°C, fluorescence detection was performed (excitation 530/25 nm, emission 590/35 nm) using a microplate fluorimeter (Synergy 2, Biotek). […] Data were plotted, and IC₅₀ values were determined by nonlinear regression using GraphPad Prism software 9.0. ^a Cell viability was assessed using the resazurin assay after 72 hours of compound treatment. […]
parameter: IC50 (nM)
Reply with just the number (in nM).

Known IC50 results, listed for orientation:
Consider COc1ccc2c(C(=O)c3cc(OC)c(OC)c(OC)c3)c(-c3ccc(C)cc3)cn2c1 . Its measured IC50 is 465

Consider COc1ccc(-c2cn3cc(OC)ccc3c2C(=O)c2cc(OC)c(OC)c(OC)c2)cc1 . Its measured IC50 is 800

Shift focus to the following entry.
Consider COc1ccc(N(C)c2nc(C)nc3ccccc23)cc1 [Verubulin, reference compound] . Its measured IC50 is 5
